These data points were gathered from the domain aggregation screens of Martell et al. (2025).

assay.method.text: soluble fraction after stress (log2 fold change); higher = more stays soluble; pooled small domains, quantitative proteomics;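 further: 20 min heating vs room temperature control held 20 min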
settings: stress: 75 degC
Let's look at some sequences and their measured soluble fraction (log2).
observed.property: soluble fraction (log2)

[[record]]
biosequence = "HMQNNWFYEENGQRKGPVSENEMVQFIKSSVISHGTSVWKQGFPDWLKVENTDLRVHLDNSAP"
observed_property = "soluble fraction (log2)"
recorded_value = 0.105

[[record]]
biosequence = "HMHSPLLDRYLAEVGWRLRHLSGAQREDILAGLREHIADLESAGVAPEEIVARLGSPESVADAAAGEF"
observed_property = "soluble fraction (log2)"
recorded_value = -0.0802

[[record]]
biosequence = "HMDNQSIVRINDGDGAWRQRLGEHFGHLPRDRKRGEIVLQVDAADWRWLQTQGYAPRFDAALSAQLQTTL"
observed_property = "soluble fraction (log2)"
recorded_value = -0.479

[[record]]
biosequence = "HMKGLDRATNKALLLKHIIDNGSTGTRFSELRQVLPSLTRGSISSLLIELRSEGKIHSIGVTRNARWYPTE"
observed_property = "soluble fraction (log2)"
recorded_value = -1.79

[[record]]
biosequence = "HMQMSERENTILLTKRYIERGEYERAMNLLDSLLIKNALDEEALAMIDEIIALKAGASLQDFPRY"
observed_property = "soluble fraction (log2)"
recorded_value = -0.797

[[record]]
biosequence = "HMKPLRPVHLEIQTHRLSPVGILRSSFRQAGKVMHSNHGRITGLNLEQLKLIQAAFAGEALPK"
observed_property = "soluble fraction (log2)"
recorded_value = -0.158

[[record]]
biosequence = "HMDDGNHTEYIVLEKAKFYDEAGEYEEGRDLVLSFDKYQDNWKLVYTLGVFNKKLNNLEEARKYYKQALE"
observed_property = "soluble fraction (log2)"
recorded_value = -0.0263

[[record]]
biosequence = "HMSQIDLQIGHKIKSKRRKLGISQADMAKKLYISPSYLNLIESGKRKINVDLLLKLSNELGIEMSDIS"
observed_property = "soluble fraction (log2)"
recorded_value = -1.97


----------
assay.method.text: soluble fraction after stress (log2 fold change); higher = more stays soluble; pooled small domains, quantitative proteomics
settings: stress: 75 degC
Classes based on soluble fraction (log2): lower level: < -1; middle level: ≥ -1 and < -0.3; upper level: ≥ -0.3

[[record]]
biosequence = "HMKQTFGAMLAALRKEKGMTQLELAEQMGVTDKAVSKWERDLSFPDVTSLPRLAEILEVSVDELMQ"
group = "upper level"

[[record]]
biosequence = "HMRTVAERYGLTAGQWRVLELLTQGKTNRQIAEMLDVTEGTVKIHVSAIFKAMKVTNRTQALLLAKKH"
group = "lower level"

[[record]]
biosequence = "HMAVDPSVLTRRERQALAWIARGLSNKEVARGLNLAESTVKVHVQSILRKLNLTSRVQAAVYAIEHGIDK"
group = "lower level"

[[record]]
biosequence = "HMFANQLLLTRFDLNYIKSDVLSRQIDVLGIPIKKLTIEANNKSIWLQGTSQSLSKVRELIGIIDIRENA"
group = "lower level"

[[record]]
biosequence = "HMQVSDEGPIKAILQEVLDKSPTQLADYASGKVKLRQYFFGEAMKALKGKANPQVINKLLDEMLPPVAA"
group = "upper level"

[[record]]
biosequence = "HMRKDRKVLMERGRHIFNDLLEKEGIVATNQLMTKLLASHHLRNRDELYLMLANDDISLSSKEIKDLS"
group = "middle level"

[[record]]
biosequence = "HMRELSDFEKLLFTTTLERKMINLAMLLTRSNKADSKDLIQDSYLKAIENQVQFNGNNIDAWVITILKNTF"
group = "middle level"

[[record]]
biosequence = "HMSRAMFEMHADWQPTDSIRGLLGRAGLPTDIAKLDQSRIGDFVNHWFGKPDRNTADSWNGLLVGWLKRTQ"
group = "lower level"

[[record]]
biosequence = "HMPRPFPELTTREHDILALIARGWSNGRIADHLSLSGKTVSNYVSNILGKLQVTARAEAAERAREAGMGQ"
group = "middle level"

[[record]]
biosequence = "HMNNLELSEEEKSVLTIIEKEGLIELDKLKTKLELSNKKWDKTLKFLTKNKLAKVVKNDNGLFVEL"
group = "upper level"

[[record]]
biosequence = "HMRVGISRNSGAAGIAVWLTQKLGRPVAKTEEIVHILKNWVDDQYEAGRVTNIGDGELWSVYKQMEAEE"
group = "middle level"

[[record]]
biosequence = "HMSLSPAATRSRGYPSVLLTMKAPERLVSAAGPDRRAYLVGTDPLVIELPGVKGLYKVDPDQIVFE"
group = "upper level"

[[record]]
biosequence = "HMISVENLSNREFEIFQLIGNGFSTKEMAKKLNLSIYTVESHKKNIKEKLKLKNSSDLSKYAIQWVIMQN"
group = "lower level"

[[record]]
biosequence = "HMSREEFLAGLEEALAGEVPASVIRENLNYYNSYISQEMAKGRTVDEIVDEIGEPRIVARTIIDSSEAAGE"
group = "upper level"

[[record]]
biosequence = "HMHVGVWIMNEKGEILLEQRASNKKVDPNKWARIGGHVDAGEKPIQAIQREILEEIGVKIPLENFIVLET"
group = "upper level"

[[record]]
biosequence = "HMGLTLREKMGHVLEMLKGREFLPFVSLFTVEEGRIGVVVTFMSILELVKEGILDLVQTESFGPIHVKAR"
group = "middle level"

